measured.target: Met (phospho-Met, HGF-stimulated PC-3 prostate cancer cells) (Homo sapiens (Human))
Sequence (P08581 25-1390): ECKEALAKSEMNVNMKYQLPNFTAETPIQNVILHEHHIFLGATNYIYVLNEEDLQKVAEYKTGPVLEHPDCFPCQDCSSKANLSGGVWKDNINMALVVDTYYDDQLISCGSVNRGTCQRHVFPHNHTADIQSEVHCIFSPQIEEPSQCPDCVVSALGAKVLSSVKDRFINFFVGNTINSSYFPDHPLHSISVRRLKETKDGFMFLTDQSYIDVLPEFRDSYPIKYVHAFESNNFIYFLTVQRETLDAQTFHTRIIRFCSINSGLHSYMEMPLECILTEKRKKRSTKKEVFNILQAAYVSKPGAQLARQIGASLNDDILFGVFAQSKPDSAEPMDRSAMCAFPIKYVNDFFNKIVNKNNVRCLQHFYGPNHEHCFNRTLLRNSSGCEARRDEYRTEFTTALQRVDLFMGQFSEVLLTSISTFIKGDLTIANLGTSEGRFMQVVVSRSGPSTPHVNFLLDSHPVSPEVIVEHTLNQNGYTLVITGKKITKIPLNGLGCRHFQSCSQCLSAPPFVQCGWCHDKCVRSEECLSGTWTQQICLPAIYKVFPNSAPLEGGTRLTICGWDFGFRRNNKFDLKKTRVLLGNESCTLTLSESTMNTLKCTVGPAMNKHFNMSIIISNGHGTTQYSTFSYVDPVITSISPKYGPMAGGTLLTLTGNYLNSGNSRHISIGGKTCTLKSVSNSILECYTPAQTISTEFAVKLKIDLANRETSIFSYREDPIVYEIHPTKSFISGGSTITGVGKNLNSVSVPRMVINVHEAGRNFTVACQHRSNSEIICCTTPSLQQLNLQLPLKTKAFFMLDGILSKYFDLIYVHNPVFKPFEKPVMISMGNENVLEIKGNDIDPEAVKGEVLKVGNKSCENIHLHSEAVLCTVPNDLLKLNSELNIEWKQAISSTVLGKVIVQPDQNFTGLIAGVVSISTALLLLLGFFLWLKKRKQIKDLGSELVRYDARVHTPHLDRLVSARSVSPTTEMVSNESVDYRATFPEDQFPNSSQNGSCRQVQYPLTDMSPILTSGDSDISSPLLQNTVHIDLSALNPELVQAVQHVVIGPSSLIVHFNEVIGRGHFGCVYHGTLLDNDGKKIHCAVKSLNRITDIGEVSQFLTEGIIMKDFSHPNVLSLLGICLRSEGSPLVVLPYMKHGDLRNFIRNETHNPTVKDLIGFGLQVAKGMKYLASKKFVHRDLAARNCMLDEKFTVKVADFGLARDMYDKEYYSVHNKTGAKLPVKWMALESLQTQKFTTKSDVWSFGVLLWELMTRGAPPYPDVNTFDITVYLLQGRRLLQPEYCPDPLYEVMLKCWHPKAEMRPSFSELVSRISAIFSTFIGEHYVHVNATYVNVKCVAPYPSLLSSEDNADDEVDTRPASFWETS
run.description: Met autophosphorylation ELISA in PC-3 cells (Example F)
Format: cell-based
condition.parameters: cellular activity; Met autophosphorylation ELISA in PC-3 cells; read-out: c-Met IC50
pIC50: −log10 of the molar value.
Measured pIC50, listed per entry.

Which pIC50 reading was recorded for the compound COc1cc2nccc(Oc3ccc(NC(=O)c4cn(CCF)c(C)c(-c5ccc(F)cc5)c4=O)cc3F)c2nc1OC [Compound 622] ?
> 7.00

Which pIC50 reading was recorded for the compound COc1cc2nccc(Oc3ccc(NC(=O)c4c5c(cn(-c6ccc(F)cc6)c4=O)C(=O)CCC5)cc3)c2nc1OC [Compound 360] ?
6.52 to 7.00

Which pIC50 reading was recorded for the compound CNC(=O)c1cnc2c(Oc3ccc(NC(=O)c4cnc(C)c(-c5ccc(F)cc5)c4O)cc3F)ccnc2c1 [Compound 578] ?
< 6.52

Which pIC50 reading was recorded for the compound COc1cnc2c(Oc3ccc(NC(=O)c4cn(CCF)c(C)c(-c5ccc(F)cc5C)c4=O)cc3)ccnc2c1 [Compound 798] ?
> 7.00
